Target: EGFR (L747-T752del, P753S) (Homo sapiens, UniProt P00533, DEL747-752/P753S)
Sequence (P00533 with tags, fused parts or gaps DEL747-752/P753S limits assumed): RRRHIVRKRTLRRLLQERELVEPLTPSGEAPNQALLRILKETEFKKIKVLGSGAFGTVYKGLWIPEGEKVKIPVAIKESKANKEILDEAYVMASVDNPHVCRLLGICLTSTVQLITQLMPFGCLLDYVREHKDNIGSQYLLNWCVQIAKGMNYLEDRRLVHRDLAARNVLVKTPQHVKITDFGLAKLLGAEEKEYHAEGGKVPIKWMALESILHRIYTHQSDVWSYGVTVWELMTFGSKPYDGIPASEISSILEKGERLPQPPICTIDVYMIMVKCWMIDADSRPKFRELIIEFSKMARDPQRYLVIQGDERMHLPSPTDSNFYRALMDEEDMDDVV
Test: Binding of mutant-EGFR (phage-displayed kinase competition binding)
Text: Methods for measuring binding affinities for interactions between small molecules and kinases including FLT3, c-KIT, ABL([…]) [a.k.a. […] The components of the assays include human kinases expressed as fusions to T7 bacteriophage particles and immobilized ligands that bind to the ATP site of the kinases. […] The term “ND” represents non-determined values. […]
assay-endpoint: Kd

molecule="Clc1ccc(Sc2ncnc3c2[nH]c2ccccc23)cc1Cl [Compound K5]" study_system="EGFR (L747-T752del, P753S) (Homo sapiens, UniProt P00533, DEL747-752/P753S)" result="< 100 nM"

According to the records, this molecule Oc1ccc(-c2cc3c(Oc4cccc(Br)c4)ncnc3[nH]2)cc1 [Compound E3] displays Kd of < 100 nM

According to the records, this molecule Oc1ccc(-c2cc3c(Sc4ccccc4)ncnc3[nH]2)cc1 [Compound L2] displays Kd of < 100 nM
